- System: OVCAR-5 complex spheroids with HUVEC/MSC, viability, % test/control
- Test: Anticancer human tumor OVCAR-5 cell line growth inhibition [AhR];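 further: spheroids exposed to compounds for 7 days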
- Details: curve of first compound; second compound 0.316 µM
Each entry below lists one item and its recorded IC50 value.
Assay readout: IC50

1. O=C(c1cc(Cc2n[nH]c(=O)c3ccccc23)ccc1F)N1CCN(C(=O)C2CC2)CC1 + Cc1ccccc1N=Nc1ccc(NC(=O)c2ccnn2C)c(C)c1 | > 10 µM
2. Nc1ncn(C2CC(O)C(CO)O2)c(=O)n1 (configuration not stated) + Cc1ccccc1N=Nc1ccc(NC(=O)c2ccnn2C)c(C)c1 | > 1 µM
3. Nc1ccn(C2OC(CO)C(O)C2(F)F)c(=O)n1 (configuration not stated) + Cc1ccccc1N=Nc1ccc(NC(=O)c2ccnn2C)c(C)c1 | < 0.0316 µM
4. Cn1ncnc1C1c2n[nH]c(=O)c3cc(F)cc(c23)NC1c1ccc(F)cc1 (configuration not stated) + Cc1cncc(-c2nc(NCCc3c[nH]c4ccccc34)c3ncn(C(C)C)c3n2)c1 | > 0.1 µM
5. CC1(C)CCC(CN2CCN(c3ccc(C(=O)NS(=O)(=O)c4ccc(NCC5CCOCC5)c([N+](=O)[O-])c4)c(Oc4cnc5[nH]ccc5c4)c3)CC2)=C(c2ccc(Cl)cc2)C1 + Cc1ccccc1N=Nc1ccc(NC(=O)c2ccnn2C)c(C)c1 | > 10 µM
6. Nc1ncn(C2CC(O)C(CO)O2)c(=O)n1 (configuration not stated) + CC(CO)NC(=O)c1cc(-c2ccc(Cl)cc2)nn(-c2cnn(C)c2)c1=O | > 1 µM
7. Nc1ncn(C2CC(O)C(CO)S2)c(=O)n1 (configuration not stated) + CC(CO)NC(=O)c1cc(-c2ccc(Cl)cc2)nn(-c2cnn(C)c2)c1=O | > 0.3 µM

Cited source for all entries: PubChem BioAssay AID1919015
